# Tested on: RPMI-8226 leukemia
# assayProcedure: NCI tumour cell line growth inhibition, 48 h
# key: entry, value: TGI

compound	censorSymbol	TGI, µM
O=c1[nH]c2cc(O)ccc2n2cc3c(F)cccc3c12	>	100
C=C1C(=O)C[C@@]23CCC[C@@]12CC(O)C3 (stereo partly specified)	=	61.3
N#Cc1nnc2c3c(-c4ccc(Cl)cc4)c(C#N)c(=O)[nH]c3nn2c1N	=	51.1
Cc1cccc(N2C(=O)/C(=C/c3ccc(N(CCC#N)CCC#N)cc3C)N=C2c2cc([N+](=O)[O-])ccc2Cl)c1	>	100
Cn1cc(-c2nn3cc(-c4cccs4)nc3s2)c2cc(F)ccc21	=	26.5
O=[N+]([O-])O.[NH-]C1CCCCC1[NH-].[NH-]C1CCCCC1[NH-].[NH-]C1CCCCC1[NH-].[OH-].[OH-].[OH-].[Pt+4].[Pt+4].[Pt+4] (stereo unspecified)	>	24.2
Cc1ns/c(=N\C(=S)N(C)C)n1C	>	100
O=C1CC2Sc3ccccc3N=C2N1c1ccc(Cl)cc1Cl (stereo unspecified)	>	100
CC(=O)Nc1ncc2c(n1)-c1ccccc1OC2	>	100
CCCCCCN(CCCCCC)CC(O)c1cccc2ccc(Cl)cc12 (stereo unspecified)	=	22.4
COC1=CC2(C=CC1=O)CCN=c1c(O)c3c(c(O)c12)=NC=N3 (stereo unspecified)	>	100
COCCCN1C(=O)C2c3[nH]c4ccccc4c3C3CCC(C(C)(C)C)CC3C2C1=O (stereo unspecified)	=	56.1
Clc1ccccc1C1=NN(c2ccccc2)C2c3cc(Br)ccc3OCC12 (stereo unspecified)	>	100
Nc1ccc2c(c1)CN1C(=O)c3ccccc3C1=N2	>	125
CC1(C)CC2(C)OC2C2(C1)N=NC(=Nc1ccccc1)O2 (stereo unspecified)	=	6.82
CC(C)(C)c1ccc(S(=O)(=O)N[C@H]2CC[C@H]3[C@@H]4CCc5cc(O)ccc5[C@H]4CC[C@]23C)cc1	=	4.51
BrCC[P+](c1ccccc1)(c1ccccc1)c1ccccc1	=	8.08
CN(C)CCNc1nc2ccccc2c2c1C(=O)c1ccccc1-2	=	0.599
C/C=C\C(CC(=O)O)CC(=O)NCCC1CN(S(=O)(=O)C(F)(F)F)c2ccccc21 (stereo unspecified)	>	100
C=C(CCC(C(=O)O)C1CCC2(C)C3=C(CCC12C)C1(C)CCC(O)C(C)(C)C1CC3)C(C)C (stereo unspecified)	=	79.7
CCCCCCCCCCCCCCCC(=O)N[C@H]1CCc2cc(OC)c(OC)c(OC)c2-c2ccc(SC)c(=O)cc21	=	22.7
CCOP(=O)(OCC)C(F)(F)CC1CCCCC1	>	10
O=C1c2ccccc2C(=O)c2c1ccc1c3ccccc3n(Cc3ccccc3)c21	>	100
COc1cc(/C=C2\C[C@H]3[C@@H]4CC=C5C[C@@H](N6CCCC6)CC[C@]5(C)[C@H]4CC[C@]3(C)[C@H]2OC(C)=O)cc(OC)c1OC	=	29.6
COc1ccc(C[C@H]2COC(=O)[C@@H]2Cc2cc(OC)c(OC)c(OC)c2)cc1OC	>	100
CC(=O)Oc1ccc2c(c1)c1c(OC(C)=O)c3ccccc3c(OC(C)=O)c1n2Cc1cccc(C)c1	=	74.4
N#CC1(C#N)C2C=CC(C3CCC=C32)C1(C#N)C#N (stereo unspecified)	=	8.79
CN1c2ccccc2C(=O)Nc2cnc(Cl)nc21	>	100
Cn1c(=O)c2[nH]c(N/N=C3/SCC(=O)N3Cc3ccccc3)nc2n(C)c1=O	>	100
CN1CCN(C(=S)SCN2C(=O)c3ccccc3S2(=O)=O)CC1	=	6.87
CCNC(=O)Oc1ccc(/C(=C(\C)c2ccc(Cl)cc2)c2ccc(OCCN3CCCCC3)cc2)cc1	=	5.27
